system: cryopreserved human hepatocytes (primary culture); experiment: Hepatocyte viability (MTT test) on suspended cryopreserved human hepatocytes; type: cell-based; settings: 100 μM, 90 minutes incubation, relative to non treated cells, Table II campaign
measured-parameter: Hepatocyte viability % (100 μM) (%)
Give your result in % as a bare value.

Recorded results for 4 compounds are shown here.
compound	measured-parameter	reported-measurement
Cc1c(C)c2c(c(C)c1O)CCC(C)(COc1ccc(CC3SC(=O)NC3=O)cc1)O2 (centres unmarked) [K, troglitazone, reference compound]	Hepatocyte viability % (100 μM)	52
Cc1c(C)c2c(c(C)c1O)CCC(C)(COc1ccc(/C=C3\SC(=O)N(C)C3=O)cc1)O2 (racemic) [J]	Hepatocyte viability % (100 μM)	120
Cc1c(C)c2c(c(C)c1O)CCC(C)(CN1C(=O)S/C(=C\c3ccc(O)cc3)C1=O)O2 (racemic) [H]	Hepatocyte viability % (100 μM)	110
Cc1c(C)c2c(c(C)c1O)CCC(C)(COc1ccc(/C=C3\SC(=O)N(Cc4ccccc4)C3=O)cc1)O2 (centres unmarked) [G]	Hepatocyte viability % (100 μM)	87

Hepatocyte viability % (100 μM) recorded for this compound, Cc1c(C)c2c(c(C)c1OC(=O)OC(C)(C)C)CCC(C)(COc1ccc(C=C3SC(=O)N(C)C3=O)cc1)O2 (racemic) [F] , is 81

Sourced from patent US9522909B2
